Cited source: ChEMBL document CHEMBL1121847

Quick reference for pKa among some compounds
experiment: Acid dissociation constant was measured; format: ADME
VALUE_TYPE: pKa

{"columns": ["MOL_SMILES", "VALUE_TYPE", "ENDPOINT_RESULT"],
 "data": [
  ["NC(=O)[C@@H]1CSCN1C(=O)[C@H](Cc1c[nH]cn1)NC(=O)[C@@H]1CCCC(=O)N1", "pKa", 6.1],
  ["NC(=O)[C@@H]1CCCN1C(=O)[C@H](Cc1c[nH]cn1)NC(=O)[C@@H]1CCCC(=O)N1", "pKa", 6.18],
  ["COC(=O)[C@@H]1CCCCN1C(=O)[C@H](Cc1c[nH]cn1)NC(=O)[C@@H]1CCC(=O)N1", "pKa", 6.18]
]}
